- system tested: Acyl-protein thioesterase 2 (Homo sapiens)
- assay method text: inhibitor selectivity across mouse and human LYPLA2, LYPLA1 – cell lysate, gel-based ABPP, FP-Rh fluorescence, mouse brain membrane proteome, selectivity assay for LYPLA2 selective inhibitor project, late-stage follow-up (AID 652030)
- settings: rhLYPLA2, at 10 µM, stronger effect = higher value
If the reported inhibition equals or exceeds 20%, assign true (1). If not, assign false (0).

Hi, just wondering whether COc1ccc(-n2nc(C(=O)NCC(=O)N3CCN(c4cccc(Cl)c4)CC3)c3ccccc3c2=O)c(OC)c1 shows inhibition of 20% or higher. true (1)

Hi, just wondering whether O=C(Cn1cnc2ccccc2c1=O)c1ccc(OC(F)F)cc1 shows inhibition of 20% or higher. false (0)

Hi, just wondering whether O=C(CN1C(=O)S/C(=C\c2ccc(C(=O)O)cc2)C1=O)Nc1ccccc1 shows inhibition of 20% or higher. false (0)

Hi, just wondering whether COc1ccc(-n2nc(C(=O)NCC(=O)N3CCN(Cc4ccc5c(c4)OCO5)CC3)c3ccccc3c2=O)cc1OC shows inhibition of 20% or higher. true (1)

Hi, just wondering whether COc1ccc(-n2nc(C(=O)NCC(=O)N3CCN(Cc4ccccc4)CC3)c3ccccc3c2=O)c(OC)c1 shows inhibition of 20% or higher. false (0)

Hi, just wondering whether COc1ccc(/C=C2\SC(=O)N(CC(=O)Nc3ccc(F)cc3)C2=O)cc1O shows inhibition of 20% or higher. false (0)

Hi, just wondering whether Cc1cccc(NC(=O)CN2C(=O)S/C(=C\c3cccn3-c3cccc(C(=O)O)c3)C2=O)c1 shows inhibition of 20% or higher. true (1)

Hi, just wondering whether O=C(Nc1ccc(N2CCN(C(=O)c3ccco3)CC2)c(Cl)c1)c1c(F)c(F)c(F)c(F)c1F shows inhibition of 20% or higher. false (0)

Hi, just wondering whether COc1ccc(N2CCN(C(=O)c3ccc(C(C)(C)C)cc3)CC2)cc1 shows inhibition of 20% or higher. true (1)

Hi, just wondering whether Cc1ccc(NC(=O)Cn2c([N+](=O)[O-])cnc2C)cc1Cl shows inhibition of 20% or higher. false (0)

Hi, just wondering whether Cc1nc(-c2ccc(S(=O)(=O)N3CCCN(CCc4ccccc4)CC3)s2)cs1 shows inhibition of 20% or higher. false (0)

Hi, just wondering whether O=C(Cc1ccc([N+](=O)[O-])cc1)N1CCN(c2ccc([N+](=O)[O-])cc2)CC1 shows inhibition of 20% or higher. false (0)

Hi, just wondering whether CC(=O)N1c2ccc(S(=O)(=O)N3CCC(C(=O)N4CCN(c5ccc(Cl)cc5)CC4)CC3)cc2CC1C (stereo not given) shows inhibition of 20% or higher. true (1)

Hi, just wondering whether O=C(COc1ccc(Cl)cc1Cl)N1CCN(C/C=C/c2ccccc2)CC1 shows inhibition of 20% or higher. false (0)

Hi, just wondering whether COc1ccc2c(c1)C(=O)[C@H](O)[C@@H](c1ccc(OC)c(Br)c1)O2 shows inhibition of 20% or higher. true (1)

Hi, just wondering whether COc1ccc(OC)c(-c2cc(C(=O)Nc3c(C)nn(Cc4ccccc4C)c3C)no2)c1 shows inhibition of 20% or higher. false (0)

Hi, just wondering whether O=C(N1CCOCC1)n1nnc2ccccc21 shows inhibition of 20% or higher. true (1)

Hi, just wondering whether O=C(O)c1cccc(N2C(=O)c3ccc(Oc4ccc(Cl)cc4)cc3C2=O)c1 shows inhibition of 20% or higher. false (0)

Hi, just wondering whether C/C(C=NNC(=O)Cn1nnc(N)n1)=C\c1ccc(C(C)C)cc1 shows inhibition of 20% or higher. false (0)

* * *

- system tested: Acyl-protein thioesterase 2 (Mus musculus)
- assay method text: inhibitor selectivity across mouse and human LYPLA2, LYPLA1 – cell lysate, gel-based ABPP, FP-Rh fluorescence, mouse brain membrane proteome, selectivity assay for LYPLA2 selective inhibitor project, late-stage follow-up (AID 652030)
- settings: emLYPLA2, at 10 µM, stronger effect = higher value
Consider the following molecules; for each one, report its inhibition.
Dear colleague, please return just the value in %, with no unit written.

Entry COc1ccc(OC)c(-c2cc(C(=O)Nc3c(C)nn(Cc4ccccc4C)c3C)no2)c1 needs its inhibition filled in; supply it. 0

Entry COc1ccc(N2CCN(C(=O)c3cc4c(s3)-c3ccccc3S(=O)(=O)C4)CC2)cc1 needs its inhibition filled in; supply it. 74

Entry COc1ccc(N2CCN(C(=O)c3ccc(C(C)(C)C)cc3)CC2)cc1 needs its inhibition filled in; supply it. 47

Entry O=C(O)c1cccc(N2C(=O)c3ccc(Oc4ccc(Cl)cc4)cc3C2=O)c1 needs its inhibition filled in; supply it. 11

Entry CC(=O)N1c2ccc(S(=O)(=O)N3CCC(C(=O)N4CCN(c5ccc(Cl)cc5)CC4)CC3)cc2CC1C (stereo not drawn) needs its inhibition filled in; supply it. 26

Entry Cc1ccccc1NC(=O)CN1C(=O)S/C(=C\c2cccn2-c2cccc(C(=O)O)c2)C1=O needs its inhibition filled in; supply it. 13

Entry Cc1ccc(N/C=C(\C#N)c2ccc(OCCCF)cc2)cc1 needs its inhibition filled in; supply it. 13

Entry Cc1cccc(N2CCN(C(=O)Cc3ccc(-n4c(=O)[nH]c5ccsc5c4=O)cc3)CC2)c1C needs its inhibition filled in; supply it. 0

Entry O=C(NC(=S)Nc1sc2c(c1C(=O)O)CCCC2)c1ccccc1 needs its inhibition filled in; supply it. 43

Entry COc1cc(C2Oc3cc(C4Oc5cc(O)cc(O)c5C(=O)C4O)ccc3OC2CO)ccc1O (stereo not drawn) needs its inhibition filled in; supply it. 19

Entry CC(=O)c1ccc(N2CCN(C(=O)C3CCN(S(=O)(=O)c4ccc5c(c4)CC(C)N5C(C)=O)CC3)CC2)cc1 (stereo not drawn) needs its inhibition filled in; supply it. 10

Entry COc1ccc(-n2nc(C(=O)NCC(=O)N3CCN(Cc4ccc5c(c4)OCO5)CC3)c3ccccc3c2=O)cc1OC needs its inhibition filled in; supply it. 23

Entry COc1ccccc1-c1nnc(C2CCN(S(=O)(=O)c3ccc([N+](=O)[O-])cc3)CC2)o1 needs its inhibition filled in; supply it. 5

Entry COc1cc(C=NNC(=O)C(NC(=O)c2ccccc2)c2n[nH]c(=O)c3ccccc23)ccc1OCC(N)=O (stereo not drawn) needs its inhibition filled in; supply it. 3

Entry CCN(CC)S(=O)(=O)c1ccc(N2CCOCC2)c(NC(=O)COc2ccc(C#N)cc2)c1 needs its inhibition filled in; supply it. 0

Entry COc1ccc(-c2noc(CCC(=O)N3CCN(c4cccc(C(F)(F)F)c4)CC3)n2)cc1 needs its inhibition filled in; supply it. 14

Entry O=C(Cn1cnc2ccccc2c1=O)c1ccc(OC(F)F)cc1 needs its inhibition filled in; supply it. 8

Entry COc1ccc2c(c1)C(=O)[C@H](O)[C@@H](c1ccc(OC)c(Br)c1)O2 needs its inhibition filled in; supply it. 55

Entry COc1cc(/C=C2\SC(=O)N(CC(=O)Nc3cccc(C)c3)C2=O)ccc1OC(C)C(=O)O (stereo not drawn) needs its inhibition filled in; supply it. 37

Entry O=C(CN1C(=O)S/C(=C\c2ccc(C(=O)O)cc2)C1=O)Nc1ccccc1 needs its inhibition filled in; supply it. 8

Entry C/C(C=NNC(=O)Cn1nnc(N)n1)=C\c1ccc(C(C)C)cc1 needs its inhibition filled in; supply it. 0

Entry CON=Cc1ccc(N2CCN(C(=O)c3cccc(C(F)(F)F)c3)CC2)c([N+](=O)[O-])c1 needs its inhibition filled in; supply it. 14

Entry COc1ccc(N2CCN(C(=O)C3CCC(Cn4c(=S)[nH]c5ccccc5c4=O)CC3)CC2)cc1 (stereo not drawn) needs its inhibition filled in; supply it. 44

Entry O=[N+]([O-])c1ccc(Oc2cccc(Br)c2)c2ccncc12 needs its inhibition filled in; supply it. 0

Entry O=C1Nc2ccc([N+](=O)[O-])cc2OC1CCN1CCN(Cc2ccc3c(c2)OCO3)CC1 (stereo not drawn) needs its inhibition filled in; supply it. 21

Entry O=C(Nc1ccc(N2CCN(C(=O)c3ccco3)CC2)c(Cl)c1)c1c(F)c(F)c(F)c(F)c1F needs its inhibition filled in; supply it. 0

Entry Cc1ccc(Oc2ccc3c(c2)C(=O)N(c2ccc(S(=O)(=O)Nc4nccs4)cc2)C3=O)cc1 needs its inhibition filled in; supply it. 6

Entry Cc1nc(-c2ccc(S(=O)(=O)N3CCCN(CCc4ccccc4)CC3)s2)cs1 needs its inhibition filled in; supply it. 0

Entry Cc1nc([N+](=O)[O-])cn1CC(=O)Nc1ccc(F)c(Cl)c1 needs its inhibition filled in; supply it. 15

Entry CC(=O)c1ccc(N2CCN(C(=O)C3CCN(S(=O)(=O)c4ccc5c(c4)CC(C)N5C(=O)C4CC4)CC3)CC2)cc1 (stereo not drawn) needs its inhibition filled in; supply it. 19

Entry CCCCCCCCCC(=O)Nn1cnc2ccccc2c1=O needs its inhibition filled in; supply it. 12

Entry O=C(N1CCOCC1)n1nnc2ccccc21 needs its inhibition filled in; supply it. 54

Entry COc1ccc(OC)c(-c2cc(C(=O)Nc3c(C)nn(Cc4ccccc4)c3C)no2)c1 needs its inhibition filled in; supply it. 0

Entry Cc1cccc(NC(=O)CN2C(=O)S/C(=C\c3cc(C)n(C)c3C)C2=O)c1 needs its inhibition filled in; supply it. 40

Entry O=C(c1ccc2n[nH]nc2c1)N1CCN(c2ccc(C(F)(F)F)cn2)CC1 needs its inhibition filled in; supply it. 35

Entry CC(CCC(C)C)=NNC(=S)Nc1cc(S(=O)(=O)N2CCOCC2)ccc1N1CCOCC1 needs its inhibition filled in; supply it. 16

Entry COc1ccc(/C=C2\SC(=O)N(CC(=O)Nc3ccc(F)cc3)C2=O)cc1O needs its inhibition filled in; supply it. 24

Entry Cc1cccc(NC(=O)CN2C(=O)S/C(=C\c3cccn3-c3cccc(C(=O)O)c3)C2=O)c1 needs its inhibition filled in; supply it. 77
